The measured values listed here are drawn from patent US20260151494A1.

biological target: apical domain of CD71 (Screen 3: 'cynomolgus apical domain of human CD71') (cynomolgus (as paragraph 454 words it; ambiguous)); assay: primary ELISA
measured_parameter: RLU (RLU)

CD71-binding FN3 domain SEQ ID NO: 299 (designed binder) MSLPAPKNLVVSRVTEDSARLSWTAPDAAFDSFEIAYFENLYLGEAIVLTVPGSERSYDLTGLKPGTEYWVQIGGVKGGNWSAPLSAIFTT    5.35e+06
CD71-binding FN3 domain SEQ ID NO: 285 (designed binder) MSLPAPKNLVVSRVTEDSARLSWTATDAAFDSFEIGYWENAYKGEAIVLTVPGSERSYDLTGLKPGTEYVVFIGGVKGGVWSVPLSAIFTT    5.13e+06
CD71-binding FN3 domain SEQ ID NO: 331 (designed binder) MSLPAPKNLVVSRVTEDSARLSWTAPDAAFDSFFIGYLEPQPPGEAIHLYVPGSERSYDLTGLKPGTEYNVTIQGVKVGFPSEPLIANFTT    6.24e+06
CD71-binding FN3 domain SEQ ID NO: 245 (designed binder) MSLPAPKNLVVSRVTEDSARLSWTAPDAAFDSFEISYWEHTFNGEAIILFVPGSERSYDLTGLKPGTEYYVTIGGVKGGAWSPPLWAHFTT    6.07e+06
CD71-binding FN3 domain SEQ ID NO: 298 (designed binder) MSLPAPKNLVVSRVTEDSARLSWTAPDAAFDSFEIGYFENLYLGEAIVLTVPGSERSYDLTGLKPGTEYWVQIGGVKGDNWSAPLSAIFTT    5.3e+06
CD71-binding FN3 domain SEQ ID NO: 303 (designed binder) MSLPAPKNLVVSRVTEDSARLSWTAPDAAFDSFWIEYWEGWKSGEAIVLTVPGSERSYDLTGLKPGTEYRVHIWGVKGGIVSWPLSAIFTT    5.6e+06
CD71-binding FN3 domain SEQ ID NO: 267 (designed binder) MSLPAPKNLVVSRVTEDSARLSWTAPDAAFDSFEISYWEHTFNGEAIILFVPGSERSYDLTGLKPGTEYYVTIGGVKGGAWSPPLWAEFTT    6.05e+06
CD71-binding FN3 domain SEQ ID NO: 307 (designed binder) MSLPAPKNLVVSRVTEDSARLSWTAPDAAFNSFEIGYFENLYLGEAIVLTVPGSERSYDLTGLKPGTEYWVQIGGVKGGTFSAPLSAIFTT    5.36e+06
CD71-binding FN3 domain SEQ ID NO: 305 (designed binder) MSLPAPKNLVVSRVTEDSARLSWTAPDAAFDSFEIAYFEQTYTGEAIVLTVPGSERSYDLTGLKPGTEYWVQIGGVKGGNWSAPLSAIFTT    5.69e+06
